These data points were gathered from the supplement of paper PMC10065799.

# system.name: FGFR3 (UniProt P22607)
# Sequence (P22607 whole entry, looked up): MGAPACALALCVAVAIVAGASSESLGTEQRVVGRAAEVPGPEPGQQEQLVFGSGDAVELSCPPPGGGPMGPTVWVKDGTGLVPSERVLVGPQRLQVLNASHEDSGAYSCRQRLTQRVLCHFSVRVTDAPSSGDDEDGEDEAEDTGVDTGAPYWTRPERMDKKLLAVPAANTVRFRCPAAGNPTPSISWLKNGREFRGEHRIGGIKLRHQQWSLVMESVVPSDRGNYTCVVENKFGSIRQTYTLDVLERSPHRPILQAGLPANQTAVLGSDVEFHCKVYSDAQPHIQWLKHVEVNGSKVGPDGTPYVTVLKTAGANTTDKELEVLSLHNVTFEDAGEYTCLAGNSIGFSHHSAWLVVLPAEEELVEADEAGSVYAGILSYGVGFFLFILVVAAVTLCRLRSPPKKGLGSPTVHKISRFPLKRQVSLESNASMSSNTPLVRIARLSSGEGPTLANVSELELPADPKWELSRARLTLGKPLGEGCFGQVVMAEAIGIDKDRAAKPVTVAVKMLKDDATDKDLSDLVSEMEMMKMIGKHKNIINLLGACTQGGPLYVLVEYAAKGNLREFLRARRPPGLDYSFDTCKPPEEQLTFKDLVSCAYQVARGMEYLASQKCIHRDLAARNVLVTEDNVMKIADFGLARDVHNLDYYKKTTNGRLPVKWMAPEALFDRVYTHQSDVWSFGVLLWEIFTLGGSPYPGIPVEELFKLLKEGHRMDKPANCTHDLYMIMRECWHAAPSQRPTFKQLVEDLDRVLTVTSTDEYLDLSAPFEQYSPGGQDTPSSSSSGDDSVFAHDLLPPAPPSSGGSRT
# assay.explanation: phosphorylation enrichment, bacterial display (enrichment ratio); higher = better substrate or ligand; peptides without Tyr show the background
Returns Met if the recorded phosphorylation enrichment is greater than or equal to 0.6, and Not met otherwise.

Use these answered entries as a reference point.
- input.sequence: "VPLATYMQIYK [RPL21_Y30_R32Q]"
  class.name: "Not met"
- input.sequence: "FSAPNYCFRCG [PPP2CA_Y265_YF]"
  class.name: "Not met"
- input.sequence: "RKKEEYKMAPY [F8_Y1990_L1994P]"
  class.name: "Met"
- input.sequence: "GNEEAYGSSHI [FAM171B_Y522_R524S]"
  class.name: "Not met"
- input.sequence: "CSTIHYNFMCN [TP53_Y234_T230S_YF]"
  class.name: "Not met"
- input.sequence: "RAMPVYKKAEH [TP63_Y231]"
  class.name: "Not met"

(Q) Dear colleague, could you confirm whether KDFTIYNPNLL [VANGL1_Y290] has phosphorylation enrichment at or above 0.6?
(A) Not met

(Q) Dear colleague, could you confirm whether HFPFQYHRQLF [F12_Y53_YF] has phosphorylation enrichment at or above 0.6?
(A) Met

(Q) Dear colleague, could you confirm whether YFCRWYRNRKS [EREG_Y144] has phosphorylation enrichment at or above 0.6?
(A) Not met

(Q) Dear colleague, could you confirm whether PINLYYLMDLS [ITGB2_Y131_D128N] has phosphorylation enrichment at or above 0.6?
(A) Met

(Q) Dear colleague, could you confirm whether PEIIAYQPYGK [PRKCG_Y529] has phosphorylation enrichment at or above 0.6?
(A) Met

(Q) Dear colleague, could you confirm whether RNNIEYVRDIG [MUSK_Y577] has phosphorylation enrichment at or above 0.6?
(A) Not met

----------
# system.name: Fyn (UniProt P06241)
# Sequence (P06241 whole entry, looked up): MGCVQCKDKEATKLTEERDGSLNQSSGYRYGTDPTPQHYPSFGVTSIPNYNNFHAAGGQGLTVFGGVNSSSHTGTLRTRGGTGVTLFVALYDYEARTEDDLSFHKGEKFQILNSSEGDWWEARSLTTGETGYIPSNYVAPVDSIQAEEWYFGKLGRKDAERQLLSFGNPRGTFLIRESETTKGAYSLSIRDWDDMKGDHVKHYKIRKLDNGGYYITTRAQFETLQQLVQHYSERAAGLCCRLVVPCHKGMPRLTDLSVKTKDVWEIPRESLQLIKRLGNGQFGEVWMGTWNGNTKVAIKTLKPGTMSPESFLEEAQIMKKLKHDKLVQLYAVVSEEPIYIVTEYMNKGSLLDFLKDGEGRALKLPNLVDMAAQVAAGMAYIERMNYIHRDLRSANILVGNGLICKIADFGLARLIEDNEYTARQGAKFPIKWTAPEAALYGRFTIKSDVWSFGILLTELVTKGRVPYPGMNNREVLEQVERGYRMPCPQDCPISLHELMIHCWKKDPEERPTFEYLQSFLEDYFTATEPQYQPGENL
# assay.explanation: phosphorylation enrichment, bacterial display (enrichment ratio); higher = better substrate or ligand; peptides without Tyr show the background
Categories are defined by ranges of phosphorylation enrichment, namely lower band = under 0.5, central band = from 0.5 up to 2, upper band = 2 and over

Use these answered entries as a reference point.
- input.sequence: "SMAKYYASGIA [ACADSB_Y373_E376G]"
  class.name: "lower band"
- input.sequence: "FEPWVYSLSYE [PRKDC_Y647_F649L]"
  class.name: "upper band"
- input.sequence: "YQLPYYNMVPS [BMPR1A_Y458]"
  class.name: "upper band"
- input.sequence: "RNESFYDTFST [EFCAB3_Y372]"
  class.name: "upper band"
- input.sequence: "YGMQLYQNYMH [GRB14_Y347]"
  class.name: "upper band"

(Q) // return the class label for VIKDKYPKAHY [APTX_Y209_R213H]
(A) lower band

(Q) // return the class label for SRDDDYETIAM [NPY1R_Y347]
(A) central band

(Q) // return the class label for VFDHIYTTQSD [RET_Y928_L923V]
(A) upper band

----------
# system.name: Grb2 SH2 (UniProt P62993)
# Sequence (P62993 whole entry, looked up): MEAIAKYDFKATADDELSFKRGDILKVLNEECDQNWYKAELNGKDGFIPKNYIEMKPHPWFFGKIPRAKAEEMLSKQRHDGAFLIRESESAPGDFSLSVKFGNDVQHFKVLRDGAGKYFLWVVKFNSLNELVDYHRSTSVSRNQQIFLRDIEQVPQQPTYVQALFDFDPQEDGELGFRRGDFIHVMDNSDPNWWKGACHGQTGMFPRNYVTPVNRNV
# assay.explanation: SH2 binding enrichment of the phosphorylated peptide, bacterial display (enrichment ratio); higher = better substrate or ligand; peptides without Tyr show the background
Kindly state SH2 binding enrichment for each of the entries shown.
Numbers only.

Some sequences with known SH2 binding enrichment results, for comparison:
- input.sequence: "KMGNIYRTEYG [MRPL3_Y265]"
  system.name: "Grb2 SH2 (UniProt P62993)"
  measured.endpoint: "SH2 binding enrichment"
  endpoint.result: 0.884
- input.sequence: "DSILVYQRKEQ [USH2A_Y1909_G1911R]"
  system.name: "Grb2 SH2 (UniProt P62993)"
  measured.endpoint: "SH2 binding enrichment"
  endpoint.result: 0.939

Give SH2 binding enrichment for each listed item.
1. SETDDYAEIIV [PTK2_Y397_D402V]
2. TYVKSYTIHYS [F5_Y2153_M2148T]
3. DLTQDSEEWKR [ORC6_Y232_Y232S]

(A)
0.975
0.791
0.837

Give SH2 binding enrichment for each listed item.
1. QNTGNYFDLFG [PTPN11_Y62_D61N_YF]
2. KNEVLYDGENH [ARFGEF1_Y314]

(A)
[1.04, 0.978]
